Reported pEC50 values for the following binders.
Molecular target: T1, human OX40 on cells (human, UniProt P43489 29-277)
T1 construct: also called hOX40-293 cells; hOX40-HT1080
T1 sequence: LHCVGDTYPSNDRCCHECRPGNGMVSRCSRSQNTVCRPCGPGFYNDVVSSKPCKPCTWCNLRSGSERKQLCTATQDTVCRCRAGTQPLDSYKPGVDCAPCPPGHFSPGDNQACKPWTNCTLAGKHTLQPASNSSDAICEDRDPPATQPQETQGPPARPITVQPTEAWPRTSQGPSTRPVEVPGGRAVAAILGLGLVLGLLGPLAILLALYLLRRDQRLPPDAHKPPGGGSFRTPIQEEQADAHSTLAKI
Test: FACS, activated human T cells; mean ± SD, n=2
Reminder that pEC50 is minus the log10 of a molar concentration.

Binder	pEC50
14B6 (antibody, V domains shown, also called 14B6.C5.C8; 14B6.C5) VH: EVQLEQSGAEVKKPGESLKISCKGSGYSFTSNWIGWVRQMPGKGLEWMGFIYPGDSDTRYSPSFQGQVTISADKSISTAYLQWSSLKASDIAMYYCARYGDDWYFDLWGRGTLVTVSS VL: EIVLTQSPATLSLSPGERATLSCRASQSVSSYLAWFQQRPGQAPRLLIYDASNRATGIPARFSGSGSGTDFSLTISSLEPEDFAVYYCQQRGDWPITFGQGTRLEIK	9.74
18E9 (antibody, V domains shown, human mAb from hybridoma; also called 18E9.G5.H4; 18E9.G5) VH: EVQLVQSGGGLVHPGGSLRLSCAHSGFTFTSSAMHWVRQAPGKGLEWISAIGTGGDTYYADSVKGRFTISRDNAKNSLYLQINSLRAEDMAVYYCARDFYDILTGIFDYWGQGTLVTVSS VL: DIQMTQSPSSVSASVGDRVTITCRASQGISSWLAWYQHKPGKAPKLLIYAASSLQSGVPSRFSGSGSGTDFTLTISSLQPEDFATYYCQQANSFPSTFGQGTKVEIK	9.66
OX40.18 (antibody, human IgG1, kappa, V domains shown, g1f) VH: QVQLVQSGAEVKKPGASVKVSCKASGYTFTSYDVNWVRQATGQGLEWMGWMNPNSGNTGYAPKFQGRVTMTRDTSISTAYMELSSLRSEDTAVYYCARIYSSSYNWFDYWGQGTLVTVSS VL: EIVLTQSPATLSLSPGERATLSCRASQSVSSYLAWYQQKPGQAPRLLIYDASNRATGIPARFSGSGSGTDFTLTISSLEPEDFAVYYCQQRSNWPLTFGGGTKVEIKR	8.50

We now examine a further binder.
Dear colleague, I am looking for the recorded pEC50 of the following binder: 6E1 (antibody, V domains shown, also called 6E1.A12.A2; 6E1.A12) VH: QVQLVESGGGVVQPGRSLRLSCAASGFTFSSFAMHWVRQAPGKGLEWVTVISYDGSIKYYTDSVKGRFTFSRDNSKNTLYLQMNSLRAEDTAVYYCTRDGNYGSARYFQHWGQGTLVTVSS VL: EIVLTQSPATLSLSPGERATLSCRASQSVSSYLAWYQQKPGQAPRLLIYDASNRATGIPARFSGSGSGTDFTLTISSLEPEDFAVYYCQQRSNWPYTFGQGTKLEIK 9.01

Numbers sourced from patent US20200399385A1.
